molecular target: phosphorylated active hERK2 enzyme (Homo sapiens (Human), UniProt P28482); details: read-out: ERK2 IC50; IMAP-FP assay; 0.5 nM hERK2, 30 μM ATP; 10 point titration, 3 μM starting concentration
Sequence (P28482 whole entry): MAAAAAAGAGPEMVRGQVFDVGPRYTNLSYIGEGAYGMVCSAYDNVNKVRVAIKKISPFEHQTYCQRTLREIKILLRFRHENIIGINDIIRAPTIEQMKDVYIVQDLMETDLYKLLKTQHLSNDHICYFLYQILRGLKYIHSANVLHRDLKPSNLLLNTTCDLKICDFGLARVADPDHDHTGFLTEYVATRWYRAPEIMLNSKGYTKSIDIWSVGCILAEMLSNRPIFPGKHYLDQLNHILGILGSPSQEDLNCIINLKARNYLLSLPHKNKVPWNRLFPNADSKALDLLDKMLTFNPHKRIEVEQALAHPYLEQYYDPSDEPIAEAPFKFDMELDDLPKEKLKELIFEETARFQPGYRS
property-label: IC50 (nM)

Sample answers from the record:
compound="Cc1cc(-n2ncc3cc(NC(=O)NC(C)c4csc(C)n4)ncc32)ccn1 (stereo not drawn) [Example 131]" observed_result=10.9
compound="CCN1C[C@H](NC(=O)Nc2cc3cnn(-c4ccnc(C)c4)c3cn2)[C@@H](c2ccccc2)C1 [Example 199]" observed_result=0.718
compound="Cc1cc(-n2ncc3cc(NC(=O)NC45CC6CC(CC(O)(C6)C4)C5)ncc32)ccn1 [Example 77]" observed_result=1880

A = Cc1cc(-n2ncc3cc(NC(=O)N[C@H]4CN(C)C[C@@H]4c4cnn(C)c4)ncc32)ccn1 [Example 165]
B = COCc1nc(NC(=O)N[C@H](C)c2ccccc2)cc2cnn(-c3ccnc(C)c3)c12 [Example 247]
From the recorded data, which exceeds the other in IC50: A or B ? Provide the label of your selected option as the answer.
A
(A: 831 nM, B: 11.1 nM)

1 = CCN1CC[C@@H](NC(=O)Nc2cc3cnn(-c4ccnc(C)c4)c3cn2)C1 [Example 28]
2 = C[C@@H](NC(=O)Nc1cc2cnn(-c3ccc(F)cc3)c2c(CN)n1)c1ccccc1 [Example 319]
Of the pair 1 and 2 , name the member with the lesser recorded IC50. Provide the label of your selected option as the answer.
1
(1: 104 nM, 2: 516 nM)

1 = Cc1cc(-n2ncc3cc(NC(=O)NCC4CNC4)ncc32)ccn1 [Example 263]
2 = COC[C@@H](NC(=O)Nc1cc2cnn(-c3ccnc(C)c3)c2cn1)c1ccccc1 [Example 90]
3 = C[C@@H](NC(=O)Nc1cc2cnn(-c3cnn(C)c3)c2cn1)c1ccc(F)c(Cl)c1 [Example 205]
4 = Cc1cc(-n2ncc3cc(NC(=O)NC(C)(C)c4ccccc4)ncc32)ccn1 [Example 122]
Please list the entries, largest IC50 first. Put the labels in the requested order and write them down.
1, 4, 3, 2

a = C[C@@H](NC(=O)Nc1cc2cnn(-c3ccncc3)c2cn1)c1ccc(F)cc1 [Example 7]
b = Cc1cc(-n2ncc3cc(NC(=O)NC(C)c4cccc(OC(F)(F)F)c4)ncc32)ccn1 (stereo not drawn) [Example 48]
Of the pair a and b , name the member with the lesser recorded IC50. Provide the label of your selected option as the answer.
b
(b: 10.7 nM, a: 16.2 nM)

A = Cc1cc(-n2ncc3cc(NC(=O)N[C@@H]4CCN(C)C4)ncc32)ccn1 [Example 20]
B = O=C(Nc1cc2cnn(-c3ccncc3)c2cn1)N[C@@H](c1ccccc1)C(F)(F)F [Example 38]
Of the pair A and B , name the member with the lesser recorded IC50. Provide the label of your selected option as the answer.
B
(B: 19.4 nM, A: 50.5 nM)

I = CO[C@H]1CCC[C@@H]1NC(=O)Nc1cc2cnn(-c3ccnc(C)c3)c2cn1 [Example 140]
II = CC(C)(C)OC(=O)N1CCc2cnc(-n3ncc4cc(NC(=O)N[C@@H](c5ccc(F)cc5)C(C)(C)O)ncc43)nc2C1 [Example 234]
Of the pair I and II , name the member with the lesser recorded IC50. Provide the label of your selected option as the answer.
I
(I: 72.1 nM, II: 1810 nM)

P = Cc1cc(-n2ncc3cc(NC(=O)NCc4cccc(-n5cccn5)c4)ncc32)ccn1 [Example 75]
Q = Cc1cc(-n2ncc3cc(NC(=O)NCCN(C)C)ncc32)ccn1 [Example 15]
From the recorded data, which exceeds the other in IC50: P or Q ? Provide the label of your selected option as the answer.
Q
(Q: 1430 nM, P: 5.28 nM)

A = Cc1cc(-n2ncc3cc(NC(=O)N[C@@H](c4ccccc4)C(C)O)ncc32)ccn1 (stereo partly drawn) [Example 297]
B = O=C(Nc1cc2cnn(-c3ccncc3)c2cn1)NC1CCCc2ccccc21 (stereo not drawn) [Example 10]
Of the pair A and B , name the member with the lesser recorded IC50. Provide the label of your selected option as the answer.
A
(A: 1.06 nM, B: 34.7 nM)

* * *

target: UniProtKB P28482; conditions: read-out: ERK2 IC50; IMAP-FP assay; 0.5 nM hERK2, 30 μM ATP; 10 point titration, 3 μM starting concentration
pIC50: −log10 of the molar value.
property-label: pIC50

Sample answers from the record:
molecule="C[C@@H](NC(=O)Nc1cc2cn[nH]c2c(CO)n1)c1ccccc1 [Example 229]" observed_result=7.39
molecule="Cc1cc(-n2ncc3cc(NC(=O)N[C@@H]4CCN(Cc5c(F)cccc5F)C4)ncc32)ccn1 [Example 283]" observed_result=9.49
molecule="Cc1cc(-n2ncc3cc(NC(=O)N[C@@H]4CN(C)C(C)(C)[C@H]4c4ccccc4C)ncc32)ccn1 [Example 103]" observed_result=8.94

P = Cc1cc(-n2ncc3cc(NC(=O)NCC4CN(C)C4)ncc32)ccn1 [Example 264]
Q = C[C@@H](NC(=O)Nc1cc2cnn(-c3ccc(F)cc3)c2cn1)c1ccccn1 [Example 222]
From the recorded data, which exceeds the other in pIC50: P or Q ? Provide the label of your selected option as the answer.
Q
(Q: 8.12, P: 7.16)

P = Cc1cc(-n2ncc3cc(NC(=O)NC(C)c4csc(C)n4)ncc32)ccn1 (centres unmarked) [Example 128]
Q = Cc1cc(-n2ncc3cc(NC(=O)N[C@H](C)c4ccccc4)ncc32)ccn1 [Example 59]
R = Cc1cc(-n2ncc3cc(NC(=O)NC(C)c4ccc(-n5cncn5)cc4)ncc32)ccn1 (centres unmarked) [Example 45]
Ascending by pIC50, please. Put the labels in the requested order and write them down.
P, R, Q

P = CC(C)(O)[C@@H](NC(=O)Nc1cc2cnn(-c3ccc(F)cc3)c2cn1)c1ccccc1 [Example 296]
Q = C=CC(=O)NC[C@@H](NC(=O)Nc1cc2cnn(C)c2cn1)c1ccccc1 [Example 328]
Of the pair P and Q , name the member with the lesser recorded pIC50. Provide the label of your selected option as the answer.
Q
(Q: 6.10, P: 9.09)

a = COC[C@@H](NC(=O)Nc1cc2cnn(C3CCNC(C)C3)c2cn1)c1ccccc1 (some centres unmarked) [Example 239]
b = O=C(NCCc1ccccc1)Nc1cc2cnn(-c3ccncc3)c2cn1 [Example 8]
c = Cc1ccc(-n2ncc3cc(NC(=O)N[C@H](C)c4ccccc4)ncc32)nn1 [Example 213]
d = Cn1cc(-n2ncc3cc(NC(=O)NCc4ccc(F)cc4)ncc32)cn1 [Example 4]
Please list the entries, largest pIC50 first. Put the labels in the requested order and write them down.
b, d, c, a
(b: 7.79, d: 7.38, c: 6.68, a: 5.66)

A = Cc1cc(-n2ncc3cc(NC(=O)N[C@@H]4CN(C)C[C@H]4c4nc(C)cs4)ncc32)ccn1 [Example 126]
B = Cc1cc(-n2ncc3cc(NC(=O)NC4CC(C)(C)Oc5ccccc54)ncc32)ccn1 (centres unmarked) [Example 46]
Of the pair A and B , name the member with the lesser recorded pIC50. Provide the label of your selected option as the answer.
B
(B: 6.76, A: 7.80)

* * *

molecular target: phosphorylated active hERK2 enzyme (Homo sapiens (Human)); conditions: ERK2 IC50, IMAP-FP assay; 0.5 nM hERK2, 30 μM ATP; 10 point titration, 3 μM starting concentration
property-label: IC50 (nM)

I = Cc1cc(-n2ncc3cc(NC(=O)N[C@H]4CCCC[C@@H]4c4ccccc4)ncc32)ccn1 (racemic) [Example 151]
II = Cc1cc(-n2ncc3cc(NC(=O)N[C@H]4CCCC[C@@H]4c4ccccc4)ncc32)ccn1 (racemic) [Example 169]
From the recorded data, which exceeds the other in IC50: I or II ? Provide the label of your selected option as the answer.
II

* * *

target: phosphorylated active hERK2 enzyme (Homo sapiens (Human), UniProt P28482); conditions: read-out: ERK2 IC50; IMAP-FP assay; 0.5 nM hERK2, 30 μM ATP; 10 point titration, 3 μM starting concentration
pIC50: −log10 of the molar value.
property-label: pIC50

a = Cc1cc(-n2ncc3cc(NC(=O)NC4CCCN(Cc5cccnc5Cl)C4)ncc32)ccn1 (stereo not shown) [Example 268]
b = C[C@@H](NC(=O)Nc1cc2cnn(C3CCOCC3)c2cn1)c1ccccc1 [Example 238]
c = Cc1cc(-n2ncc3cc(NC(=O)N[C@@H](C)c4ccccn4)ncc32)ccn1 [Example 203]
d = Cc1cc(-n2ncc3cc(NC(=O)N[C@H]4CN(C)C[C@@H]4c4ccc(F)c(Cl)c4)ncc32)ccn1 [Example 18]
Rank descending by pIC50: all 4 compounds from above. Put the labels in the requested order and write them down.
d, a, b, c
(d: 8.67, a: 7.73, b: 6.83, c: 5.93)

* * *

molecular target: phosphorylated active hERK2 enzyme (Homo sapiens (Human)); conditions: read-out: ERK2 IC50; IMAP-FP assay; 0.5 nM hERK2, 30 μM ATP; 10 point titration, 3 μM starting concentration
pIC50: −log10 of the molar value.
property-label: pIC50

Sample answers from the record:
compound=O=C(NCc1cccc(Cl)c1)Nc1cc2cnn(-c3ccncc3)c2cn1 target="phosphorylated active hERK2 enzyme (Homo sapiens (Human))" observed_result=9.30
compound=Cc1cc(-n2ncc3cc(NC(=O)N[C@H]4CN(C)C[C@@H]4C4CC4)ncc32)ccn1 target="phosphorylated active hERK2 enzyme (Homo sapiens (Human))" observed_result=6.96

1 = Cc1cc(-n2ncc3cc(NC(=O)N[C@@H](c4ccccc4)C(F)F)ncc32)ccn1
2 = Cc1cc(-n2ncc3cc(NC(=O)NCCC4CCOC4)ncc32)ccn1 (centres unmarked)
3 = Cc1cc(-n2ncc3cc(NC(=O)N[C@@H]4CN(C5CCC5)C[C@H]4c4ccccc4)ncc32)ccn1
4 = C[C@@H](NC(=O)Nc1cc2cnn(CCO)c2c(CO)n1)c1ccccc1
Ascending by pIC50, please. Put the labels in the requested order and write them down.
1, 3, 4, 2

I = Cc1cc(-n2ncc3cc(NC(=O)NC4CCCN(Cc5nccs5)C4)ncc32)ccn1 (centres unmarked)
II = O=C(Nc1cc2cnn(Cc3ccncc3)c2cn1)N[C@H](CO)c1ccccc1
Of the pair I and II , name the member with the lesser recorded pIC50. Provide the label of your selected option as the answer.
II
